Below: a set of entries, each annotated with reported composite z-score.
biological target: Neurogenic locus notch homolog protein 3 (Homo sapiens) (UniProt Q9UM47); experiment: small molecules binding NOTCH3 protein – biochemical, 635/667 nm fluorescence, primary screen (AID 1096); conditions: small-molecule microarray, 635 nm fluorescence, higher = more signal
Sequence (Q9UM47 whole entry, looked up): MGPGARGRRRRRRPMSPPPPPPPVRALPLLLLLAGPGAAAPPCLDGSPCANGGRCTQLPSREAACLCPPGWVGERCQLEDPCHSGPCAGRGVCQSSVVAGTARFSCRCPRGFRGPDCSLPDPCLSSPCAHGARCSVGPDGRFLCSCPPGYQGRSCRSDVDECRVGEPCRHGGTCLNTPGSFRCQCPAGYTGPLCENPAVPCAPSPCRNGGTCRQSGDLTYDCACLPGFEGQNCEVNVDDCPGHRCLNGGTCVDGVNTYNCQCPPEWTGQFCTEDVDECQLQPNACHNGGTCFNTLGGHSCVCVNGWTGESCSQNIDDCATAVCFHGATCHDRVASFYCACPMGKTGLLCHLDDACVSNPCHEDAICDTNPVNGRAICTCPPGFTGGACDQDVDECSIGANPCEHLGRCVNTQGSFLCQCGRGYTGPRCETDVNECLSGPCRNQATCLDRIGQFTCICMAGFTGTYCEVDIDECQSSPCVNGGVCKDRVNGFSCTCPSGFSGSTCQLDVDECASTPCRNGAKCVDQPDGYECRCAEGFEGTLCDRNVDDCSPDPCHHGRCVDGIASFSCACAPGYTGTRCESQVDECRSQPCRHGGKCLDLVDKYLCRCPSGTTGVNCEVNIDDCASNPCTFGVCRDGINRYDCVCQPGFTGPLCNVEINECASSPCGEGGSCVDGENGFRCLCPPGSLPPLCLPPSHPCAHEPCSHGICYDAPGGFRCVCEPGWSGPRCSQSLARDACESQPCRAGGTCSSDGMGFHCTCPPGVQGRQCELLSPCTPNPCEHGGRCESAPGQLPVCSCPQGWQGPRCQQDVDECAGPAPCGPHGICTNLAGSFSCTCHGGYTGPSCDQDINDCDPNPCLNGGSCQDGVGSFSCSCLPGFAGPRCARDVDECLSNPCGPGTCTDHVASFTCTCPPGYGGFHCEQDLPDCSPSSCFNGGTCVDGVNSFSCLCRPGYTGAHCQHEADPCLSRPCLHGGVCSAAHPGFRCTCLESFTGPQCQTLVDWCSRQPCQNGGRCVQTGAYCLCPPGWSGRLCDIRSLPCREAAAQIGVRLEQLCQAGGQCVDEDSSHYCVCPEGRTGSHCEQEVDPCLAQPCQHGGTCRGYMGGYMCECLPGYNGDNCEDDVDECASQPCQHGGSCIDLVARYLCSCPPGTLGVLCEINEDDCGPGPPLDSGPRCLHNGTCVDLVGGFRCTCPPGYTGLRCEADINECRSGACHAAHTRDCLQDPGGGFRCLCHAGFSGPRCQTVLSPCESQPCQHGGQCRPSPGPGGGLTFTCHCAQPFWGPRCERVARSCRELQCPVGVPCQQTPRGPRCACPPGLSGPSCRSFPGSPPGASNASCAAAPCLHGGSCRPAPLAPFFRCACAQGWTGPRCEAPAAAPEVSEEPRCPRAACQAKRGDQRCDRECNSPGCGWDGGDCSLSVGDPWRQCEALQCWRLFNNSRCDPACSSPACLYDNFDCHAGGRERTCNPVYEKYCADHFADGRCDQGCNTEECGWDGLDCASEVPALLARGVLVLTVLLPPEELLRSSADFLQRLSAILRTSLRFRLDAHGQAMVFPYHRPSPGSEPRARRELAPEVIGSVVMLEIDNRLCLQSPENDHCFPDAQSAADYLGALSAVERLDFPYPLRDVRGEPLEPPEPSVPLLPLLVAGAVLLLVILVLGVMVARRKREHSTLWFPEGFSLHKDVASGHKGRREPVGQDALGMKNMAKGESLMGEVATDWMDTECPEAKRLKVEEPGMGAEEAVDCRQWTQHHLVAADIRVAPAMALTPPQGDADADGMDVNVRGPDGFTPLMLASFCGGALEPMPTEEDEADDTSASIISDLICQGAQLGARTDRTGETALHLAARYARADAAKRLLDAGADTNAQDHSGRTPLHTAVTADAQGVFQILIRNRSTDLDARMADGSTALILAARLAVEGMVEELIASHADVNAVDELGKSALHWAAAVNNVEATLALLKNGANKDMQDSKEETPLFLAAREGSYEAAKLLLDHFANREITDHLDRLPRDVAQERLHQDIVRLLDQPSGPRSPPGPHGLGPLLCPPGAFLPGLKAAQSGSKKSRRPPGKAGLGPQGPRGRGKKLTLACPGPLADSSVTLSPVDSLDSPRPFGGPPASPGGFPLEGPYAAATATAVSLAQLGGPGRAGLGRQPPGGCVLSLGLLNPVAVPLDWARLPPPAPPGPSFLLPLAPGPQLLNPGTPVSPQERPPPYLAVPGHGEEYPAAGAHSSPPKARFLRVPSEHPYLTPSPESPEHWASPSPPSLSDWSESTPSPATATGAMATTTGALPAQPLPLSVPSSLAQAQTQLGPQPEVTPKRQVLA

# count of solved cases: 3
INSERT INTO results (molecule, tested_target, assay_readout, endpoint_result) VALUES
  ('CN1C(=O)C2C(C1=O)C1C=C(c3ccc(CO)cc3)C2C(C2CC2)N1Cc1cc2c(cc1Br)OCO2 (centres undefined)', 'Neurogenic locus notch homolog protein 3 (Homo sapiens) (UniProt Q9UM47)', 'composite z-score', 1.09),
  ('CC(C)N1C(=O)c2ccccc2[C@](C)(C(=O)NCCCN(C)C)[C@@H]1c1ccc(CO)cc1', 'Neurogenic locus notch homolog protein 3 (Homo sapiens) (UniProt Q9UM47)', 'composite z-score', -1.28),
  ('CC(C)[Si]1(C(C)C)O[C@@H](c2ccccc2)c2cc(-c3ccc(-c4ccc(Cl)c(Cl)c4)o3)nc(CCc3ccccc3)c21', 'Neurogenic locus notch homolog protein 3 (Homo sapiens) (UniProt Q9UM47)', 'composite z-score', -1.78);

Enquiry: Need composite z-score, item NC(=O)[C@@]1(CCS(=O)(=O)c2ccccc2)N=C(c2ccc(OCCCO)cc2)O[C@H]1c1ccccc1
Return: 0.667

* * *

assay: binders from COS7 lysate, DM2A8 probe, primary screen, torsin A project, cell lysate, small-molecule microarray, fluorescence 635/667 (AID 1065); settings: higher = more signal, COS7 lysate expressing mutant human TOR1A
Below: a set of entries, each annotated with reported composite z-score.

# count of solved cases: 6
INSERT INTO results (compound, assay_readout, endpoint_result) VALUES
  ('O=C1C[C@@](C(=O)O)(c2ccc([N+](=O)[O-])cc2)[C@@H](c2ccc(CO)cc2I)N1C1CCCCC1', 'composite z-score', 0.0298),
  ('CC(=O)n1cc(C(O)C2C=CC3C(=O)N(c4ccccc4)C(=O)C3N2Nc2ccc(C#N)cc2)c2ccccc21 (centres undefined)', 'composite z-score', -0.234),
  ('COCCOC(=O)N1C(=O)[C@@]2(c3cc(C#Cc4ccc(OC)cc4)ccc31)[C@H](c1ccc(O)cc1)N1[C@H](c3ccccc3)[C@H](c3ccccc3)OC(=O)[C@H]1[C@@H]2C(=O)N1CCN(c2ncccn2)CC1', 'composite z-score', 0.47),
  ('CN(C)CCCCCCNC(=O)[C@@H]1C[C@@H]2C(=O)NCC(=O)N2[C@@H]1c1cccc(OCCO)c1', 'composite z-score', 1.37),
  ('COc1ccc([Si](C)(C)[C@H]2[C@H](CC(=O)N3CCC[C@H]3CO)O[C@@]3(C(=O)N(Cc4cccc(N5CCC5=O)c4)c4ccccc43)[C@@H]2C)cc1', 'composite z-score', 0.149),
  ('CCN(CC)c1ccc(N2CC=CC34O[C@@H]5/C=C\CCC(C)OC(=O)C5[C@H]3C(=O)N(CCCCCCO)[C@@H]4C2=O)cc1 (some centres undefined)', 'composite z-score', 0.19);

Enquiry: Need composite z-score, item [N-]=[N+]=NCc1ccccc1C[C@]1(C(N)=O)N=C(c2ccc(OCCCO)cc2)O[C@H]1c1ccccc1N=[N+]=[N-]
Return: -0.186

Enquiry: Need composite z-score, item C=CCOC(=O)[C@@H]1[C@H]2C(=O)O[C@H](c3ccccc3)[C@H](c3ccccc3)N2[C@H](c2ccc(OCCOC(=O)[C@H]3C[C@H]4C(=O)N[C@@H](Cc5ccccc5)C(=O)N4[C@H]3c3ccc(O)cc3)cc2)[C@@]12C(=O)Nc1ccc(I)cc12
Return: 1.33

Enquiry: Need composite z-score, item CC1(C)C(=O)C(c2ccccc2)=C2CN3C(=O)N(CCc4ccccc4)C(=O)C3(Cc3ccccc3)C=C21 (centres undefined)
Return: -0.219
